measured_target: GAL4-hRXRα (Homo sapiens)
Sequence (P19793 with tags, fused parts or gaps limits assumed): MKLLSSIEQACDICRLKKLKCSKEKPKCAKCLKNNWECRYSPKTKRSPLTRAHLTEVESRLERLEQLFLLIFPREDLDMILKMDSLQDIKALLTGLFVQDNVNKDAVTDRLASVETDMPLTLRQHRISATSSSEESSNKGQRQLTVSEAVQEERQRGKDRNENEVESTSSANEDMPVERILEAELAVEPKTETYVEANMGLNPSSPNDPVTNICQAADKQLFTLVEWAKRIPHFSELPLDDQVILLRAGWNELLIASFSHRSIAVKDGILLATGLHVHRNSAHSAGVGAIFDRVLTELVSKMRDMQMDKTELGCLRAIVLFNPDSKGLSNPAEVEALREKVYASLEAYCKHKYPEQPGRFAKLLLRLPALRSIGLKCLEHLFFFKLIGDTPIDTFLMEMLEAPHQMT
assay_name: GAL4-hRXRα activation, transient transfection luciferase reporter in COS7 cells
run_conditions: COS7, ligands 24 hr; read-out: RXRα agonist: EC50, Fig 4B
measured_quantity: EC50 (µM)
Numeric answer only, unit µM assumed.

IN: Write down measured EC50 (GAL4-hRXRα (Homo sapiens)) for this molecule. N#Cc1c[nH]cc1-c1cccc2c1OC(F)(F)O2 [Fludioxonil]
OUT: 14.3

----------
Test system: 3T3-L1 preadipocytes
assay_name: 3T3-L1 adipogenesis assay (lipid accumulation, adipogenic gene expression)
Type: cell-based
run_conditions: 0.02-20 μM, 5 days after MDI induction
measured_quantity: Adipogenesis 3T3-L1 (result in words)

Consider the reported Adipogenesis 3T3-L1 (result in words) for these compounds:
compound: Fc1ccc(Oc2ccnc3cc(Cl)cc(Cl)c23)cc1 [Quinoxyfen]
measured_quantity: Adipogenesis 3T3-L1 (result in words)
observed: Positive
--
compound: CCc1cccc(CC)c1N(COC)C(=O)CCl [Alachlor]
measured_quantity: Adipogenesis 3T3-L1 (result in words)
observed: Negative
--
compound: COC(=O)NS(=O)(=O)c1ccc(N)cc1 [Asulam]
measured_quantity: Adipogenesis 3T3-L1 (result in words)
observed: Negative
--
compound: CCC(C)(C)C(=O)OC1=C(c2ccc(Cl)cc2Cl)C(=O)OC12CCCCC2 [Spirodiclofen]
measured_quantity: Adipogenesis 3T3-L1 (result in words)
observed: Positive
--
compound: O=c1ccc(=O)[nH][nH]1 [Maleic hydrazide]
measured_quantity: Adipogenesis 3T3-L1 (result in words)
observed: Negative
--
compound: CCC(C)(NC(=O)c1cc(Cl)c(C)c(Cl)c1)C(=O)CCl (stereo not shown) [Zoxamide]
measured_quantity: Adipogenesis 3T3-L1 (result in words)
observed: Positive
--
compound: Cc1nn(C)c(Oc2ccccc2)c1C=NOCc1ccc(C(=O)OC(C)(C)C)cc1 [(Z,E)-Fenpyroximate]
measured_quantity: Adipogenesis 3T3-L1 (result in words)
observed: Negative
--
compound: N#Cc1c[nH]cc1-c1cccc2c1OC(F)(F)O2 [Fludioxonil]
measured_quantity: Adipogenesis 3T3-L1 (result in words)
observed: Positive
--
compound: CC1=NNC(=O)N(/N=C/c2cccnc2)C1 [Pymetrozine]
measured_quantity: Adipogenesis 3T3-L1 (result in words)
observed: Positive

IN: Give the reported Adipogenesis 3T3-L1 (result in words) for this compound. Cc1ccc(-c2c(Cl)nc(C#N)n2S(=O)(=O)N(C)C)cc1 [Cyazofamid]
OUT: Negative
